# credit: ChEMBL document CHEMBL2429762

targetOrSystem: Cannabinoid receptor 1 (Homo sapiens) (UniProt P21554)
Sequence (P21554 whole entry): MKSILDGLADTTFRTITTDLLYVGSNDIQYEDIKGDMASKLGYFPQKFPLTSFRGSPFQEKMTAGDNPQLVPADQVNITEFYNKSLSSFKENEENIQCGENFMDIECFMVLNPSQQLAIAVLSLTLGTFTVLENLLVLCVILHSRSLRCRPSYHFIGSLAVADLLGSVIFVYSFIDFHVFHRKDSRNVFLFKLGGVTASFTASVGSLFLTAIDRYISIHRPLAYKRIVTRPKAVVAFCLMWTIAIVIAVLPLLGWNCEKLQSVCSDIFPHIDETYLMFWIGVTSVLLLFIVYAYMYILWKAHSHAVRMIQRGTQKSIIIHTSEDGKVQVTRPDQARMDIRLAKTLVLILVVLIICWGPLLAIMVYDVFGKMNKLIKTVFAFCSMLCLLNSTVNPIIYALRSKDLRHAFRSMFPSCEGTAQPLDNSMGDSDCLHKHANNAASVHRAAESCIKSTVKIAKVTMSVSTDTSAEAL
protocol: Positive allosteric modulation of CB1 receptor (unknown origin) expressed in HEK293 cell membranes assessed as stimulation of [3H]CP55,940 binding after 60 mins by liquid scintillation counting analysis
measurementLabel: log10 Kb (log10 of the value in nM)
Heads up, the numbers here are log10 of Kb in nM units.

Guide cases for log10 Kb, answers given:
CCCCCc1c(C(=O)NCCc2ccc(N3CCOCC3)cc2)[nH]c2ccc(Cl)cc12 = 2.71
CCCCCCCc1c(C(=O)NCCc2ccc(N3CCCCC3)cc2)[nH]c2ccc(Cl)cc12 = 2.81
CCCCCc1c(C(=O)NCCc2ccc(Oc3ccccc3)cc2)[nH]c2ccc(Cl)cc12 = 3.37
CCc1c(C(=O)NCCc2ccc(N3CCCCC3)cc2)oc2ccc(Cl)cc12 = 3.41
CCCCCCCCCc1c(C(=O)NCCc2ccc(N3CCCCC3)cc2)[nH]c2ccc(Cl)cc12 = 2.41
CCCCCc1c(C(=O)NCCc2ccc(N(C)C)cc2)[nH]c2ccc(Cl)cc12 = 2.22
CCc1c(C(=O)NCCc2ccc(N3CCCCC3)cc2)[nH]c2ccc(Cl)cc12 = 2.34
O=C(NCCc1ccc(N2CCCCC2)cc1)c1[nH]c2ccc(Cl)cc2c1Cc1ccccc1 = 3.03

Prompt line: Give log10 Kb for `O=C(NCCc1ccc(N2CCCCC2)cc1)c1[nH]c2ccc(Cl)cc2c1CC1CCCCC1`
Response line: 3.38

Prompt line: Answer with the recorded log10 Kb for the molecule listed here: `CCc1c(C(=O)NCCc2ccc(N(C)C)cc2)[nH]c2ccc(Cl)cc12`
Response line: 2.32

Prompt line: Read the entry `CCc1c(C(=O)NCCc2ccc(N(C)C)cc2)oc2ccc(Cl)cc12` and write its reported log10 Kb.
Response line: 2.80

Prompt line: For the molecule CCCCCc1c(C(=O)NC(CO)Cc2ccc(N(C)C)cc2)[nH]c2ccc(Cl)cc12 (configuration not stated) , report log10 Kb.
Response line: 3.01
